Assay: Kinetic solubility of the compound in pH 7.4 phosphate buffered saline measured after 1 hr
Assay type: physicochemical
Settings: read-out: Kinetic_solubility
Observable: solubility kinetic at 1 h (µg/mL)

C[C@H]1COCCN1c1ccnc(-c2cccc(O)c2)n1 = 119

1. Oc1cccc(-c2nccc(C3=CCOCC3)n2)c1
2. CNCC(=O)Nc1ccc(-c2nc(C(C)(C)S(C)(=O)=O)cc([C@@]34CCOC[C@@H]3C4)n2)cc1
3. CS(=O)(=O)Cc1cc(C2=CCOCC2)nc(-c2cccc(O)c2)n1
4. CC(C)(c1cc([C@]23CCOC[C@H]2C3)nc(-c2ccc(NC(=S)NCCO)cc2)n1)S(C)(=O)=O
Kindly order the items shown according to solubility kinetic at 1 h, from the highest value down. Form entry: labels listed in requested order.
2, 4, 1, 3
(2: 257 µg/mL, 4: 173 µg/mL, 1: 113 µg/mL, 3: 27 µg/mL)
